The reported measurements were obtained from patent US9822131B2.

system: Balb/c splenic B cells; test: B cell activation and proliferation assay (Alamar Blue); format: cell-based; details: Mus musculus, read-out: B cell proliferation EC50
Give measured EC50 for each item. Keep answers brief.

Query :: Look up and report measured EC50 for this entry: `CCc1ccccc1-n1c(Cn2nc(-c3cccc(O)c3)c3c(N)ncnc32)cc2cccc(C)c2c1=O`
Result :: < 100 nM

Query :: Look up and report measured EC50 for this entry: `Cc1cccc2cc(Cn3nc(I)c4c(N)ncnc43)n(-c3ccccc3OCCN3CCOCC3)c(=O)c12`
Result :: < 1000 nM

Query :: Look up and report measured EC50 for this entry: `Nc1ncnc2c1c(-c1cc(O)cc(F)c1)nn2Cc1cc2cccc(F)c2c(=O)n1-c1ccccc1F`
Result :: < 100 nM

Query :: Look up and report measured EC50 for this entry: `Cc1cccnc1-n1c(Cn2nc(-c3cccc(O)c3)c3c(N)ncnc32)cc2cccc(C)c2c1=O`
Result :: < 100 nM

Query :: Look up and report measured EC50 for this entry: `Cc1cccc2cc(Cn3nc(-c4cccc(O)c4)c4c(N)ncnc43)n(-c3ccccc3OCCN3CCOCC3)c(=O)c12`
Result :: < 100 nM

---

system: Balb/c splenic B cells; test: B cell activation and proliferation assay (Alamar Blue); format: cell-based; settings: Mus musculus, read-out: B cell proliferation EC50
Give measured EC50 for each item. Keep answers brief.

Query :: Look up and report measured EC50 for this entry: `Cc1cccc2cc(Cn3nc(-c4cccc(Cl)c4)c4c(N)ncnc43)n(-c3ccccc3F)c(=O)c12`
Result :: > 10000 nM

Query :: Look up and report measured EC50 for this entry: `Cc1cccc2cc(Cn3nc(-c4cn[nH]c4)c4c(N)ncnc43)n(-c3cccc(F)c3)c(=O)c12`
Result :: < 100 nM

Query :: Look up and report measured EC50 for this entry: `Cc1cccc2cc(Cn3nc(-c4cc(O)cc(F)c4)c4c(N)ncnc43)n(C)c(=O)c12`
Result :: < 100 nM

Query :: Look up and report measured EC50 for this entry: `Cc1ccccc1-n1c(Cn2nc(-c3cnn(CCO)c3)c3c(N)ncnc32)cc2cccc(C)c2c1=O`
Result :: < 1000 nM

Query :: Look up and report measured EC50 for this entry: `Cc1cccc2cc(Cn3nc(-c4cccc(O)c4)c4c(N)ncnc43)n(C)c(=O)c12`
Result :: < 1000 nM

Query :: Look up and report measured EC50 for this entry: `Cc1ccccc1-n1c(Cn2nc(I)c3c(N)ncnc32)cc2cccc(F)c2c1=O`
Result :: < 1000 nM

Query :: Look up and report measured EC50 for this entry: `CC(C)n1c(Cn2nc(-c3cc(O)cc(F)c3)c3c(N)ncnc32)cc2ccccc2c1=O`
Result :: < 100 nM

Query :: Look up and report measured EC50 for this entry: `Cc1cccc2cc(Cn3nc(-c4cc(O)cc(F)c4)c4c(N)ncnc43)n(-c3ccccc3F)c(=O)c12`
Result :: < 100 nM

Query :: Look up and report measured EC50 for this entry: `Cc1ccccc1-n1c(Cn2nc(-c3ccc(O)c(Cl)c3)c3c(N)ncnc32)cc2cccc(C)c2c1=O`
Result :: < 1000 nM

Query :: Look up and report measured EC50 for this entry: `Nc1ncnc2c1c(-c1cc(O)cc(F)c1)nn2Cc1cc2cccc(Cl)c2c(=O)n1C1CC1`
Result :: < 100 nM

Query :: Look up and report measured EC50 for this entry: `Cc1csc2nc(Cn3nc(C#C[C@@H](C)O)c4c(N)ncnc43)n(-c3ncccc3C(F)(F)F)c(=O)c12`
Result :: < 100 nM

Query :: Look up and report measured EC50 for this entry: `CC(C)n1c(Cn2nc(-c3cc(O)cc(F)c3)c3c(N)ncnc32)cc2cccc(F)c2c1=O`
Result :: < 100 nM

Query :: Look up and report measured EC50 for this entry: `Cc1ccccc1-n1c(Cn2nc(-c3cccc(O)c3)c3c(N)ncnc32)cc2ccccc2c1=O`
Result :: < 1000 nM

Query :: Look up and report measured EC50 for this entry: `Cc1cccc2cc(Cn3cnc4c(N)ncnc43)n(-c3ccccc3F)c(=O)c12`
Result :: < 10000 nM

---

tested on: Balb/c splenic B cells; experiment: B cell activation and proliferation assay (Alamar Blue); format: cell-based; conditions: Mus musculus, read-out: B cell proliferation EC50
PARAMETER: EC50

Query :: Look up and report measured EC50 for this entry: `Nc1ncnc2c1c(I)nn2Cc1cc2cccc(Cl)c2c(=O)n1C1CC1`
Result :: < 0.1 µM

Query :: Look up and report measured EC50 for this entry: `CCc1ccccc1-n1c(Cn2nc(-c3cccc(O)c3)c3c(N)ncnc32)nc2scc(C)c2c1=O`
Result :: < 0.1 µM

Query :: Look up and report measured EC50 for this entry: `Nc1ncnc2c1c(-c1cccc(O)c1)nn2Cc1cc2cccc(Cl)c2c(=O)n1C1CC1`
Result :: < 0.1 µM

Query :: Look up and report measured EC50 for this entry: `Cc1cccnc1-n1c(Cn2nc(-c3ccc(Cl)c(O)c3)c3c(N)ncnc32)cc2cccc(C)c2c1=O`
Result :: < 0.1 µM

Query :: Look up and report measured EC50 for this entry: `CCc1ccccc1-n1c(Cn2nc(-c3cc(O)cc(F)c3)c3c(N)ncnc32)cc2cccc(C)c2c1=O`
Result :: < 0.1 µM

Query :: Look up and report measured EC50 for this entry: `Cc1ccccc1-n1c(Cn2nc(-c3ccc4ncnc(N)c4c3)c3c(N)ncnc32)cc2cccc(C)c2c1=O`
Result :: < 1 µM
